Origin of values: ChEMBL document CHEMBL1921745

Test: Clearance in rat at 1 mg/kg, iv and 1.5 mg/kg, po
Type: ADME, organism-based
Conditions: in vivo
recorded_endpoint: clearance (mL/min/kg)
Give the value in mL/min/kg but do not write mL/min/kg after it.

Per the records, this compound ( COc1cc(C(=O)NCCN2CCCC2)ccc1Oc1ccc(Cl)cc1NS(=O)(=O)c1ccc(Cl)c(C(F)(F)F)c1 ) has clearance equal to 17

---

Test: Clearance in rat at 1 mg/kg, iv and 2 mg/kg, po
Type: ADME, organism-based
Settings: in vivo
recorded_endpoint: clearance (mL/min/kg)
# value in mL/min/kg; strip the unit string

Noted for O=C(NCCN1CCCCC1)c1ccc(Oc2ncc(Cl)cc2NS(=O)(=O)c2ccc(Cl)c(C(F)(F)F)c2)cc1 : its clearance reads 39

---

Listed next: entries and their corresponding Kb.
Target: C-C chemokine receptor type 2 (Homo sapiens, UniProt P41597)
Test: Antagonist activity at CCR2 receptor in human whole blood assessed as inhibition of MCP-1 induced monocyte shape change pretreated for 15 mins before MCP-1 challenge measured after 5 mins by flow cytometry
Type: functional, tissue-based
Conditions: read-out: pA2 (converted)
Sequence (P41597 whole entry): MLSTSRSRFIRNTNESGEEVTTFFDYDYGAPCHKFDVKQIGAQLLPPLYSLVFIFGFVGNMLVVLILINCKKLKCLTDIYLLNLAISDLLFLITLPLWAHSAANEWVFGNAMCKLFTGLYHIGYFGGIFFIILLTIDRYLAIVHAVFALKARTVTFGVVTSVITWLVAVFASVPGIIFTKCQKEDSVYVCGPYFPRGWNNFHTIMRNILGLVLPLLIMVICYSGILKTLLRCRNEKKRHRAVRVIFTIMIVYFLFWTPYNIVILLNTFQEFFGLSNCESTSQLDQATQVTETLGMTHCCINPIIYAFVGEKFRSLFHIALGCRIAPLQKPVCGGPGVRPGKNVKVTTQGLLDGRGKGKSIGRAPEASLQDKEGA
# unit: nM | format: bare number

Would you please look over these solved cases?
COc1cc(Oc2ccc(C(=O)NCCN3CCCCC3)cc2)c(NS(=O)(=O)c2ccc(Cl)c(C(F)(F)F)c2)cc1Cl :: 398
O=C(NCCN1CCCCC1)c1ccc(Oc2ccc(Cl)cc2NS(=O)(=O)c2ccc(Cl)c(C(F)(F)F)c2)cc1 :: 631
COc1cc(Oc2ccc(C(=O)NCCN3CCCC3)cc2)c(NS(=O)(=O)c2ccc(Cl)c(C(F)(F)F)c2)cc1Cl :: 398
O=C(NCCN1CCCC1)c1ccc(Oc2ccc(Cl)cc2NS(=O)(=O)c2ccc(Cl)c(C(F)(F)F)c2)cc1 :: 501
O=C(NCCN1CCCCC1)c1ccc(Oc2ncc(Cl)cc2NS(=O)(=O)c2ccc(Cl)c(C(F)(F)F)c2)cc1 :: 398

We now examine a further compound.
Data point: Cc1cc(C(=O)NCCN2CCCCC2)ccc1Oc1ccc(Cl)cc1NS(=O)(=O)c1ccc(Cl)c(C(F)(F)F)c1 ; Kb = 2510

---

Biological target: C-C chemokine receptor type 2 (Homo sapiens, UniProt P41597)
Experiment: Ratio of IC50 for human CCR2 receptor in presence of 5% human serum to IC50 for human CCR2 receptor
Sequence (P41597 whole entry, looked up): as the sequence (P41597 whole entry) above
// thresholds for fold change (FC) classes: range 1 (below 4), range 2 (4 to below 10), range 3 (10 or more)

Past entries and their recorded results:
Cc1ncccc1Oc1ncc(Cl)cc1NS(=O)(=O)c1ccc(Cl)c(Cl)c1 :: range 3
O=C(NCCN1CCCCC1)c1ccc(Oc2ncc(Cl)cc2NS(=O)(=O)c2ccc(Cl)c(Cl)c2)cc1 :: range 1
O=C(NCCN1CCNCC1)c1ccc(Oc2ncc(Cl)cc2NS(=O)(=O)c2ccc(Cl)c(Cl)c2)cc1 :: range 2
O=C(NCCN1CCNCC1)c1cccc(Oc2ncc(Cl)cc2NS(=O)(=O)c2ccc(Cl)c(Cl)c2)c1 :: range 3
O=C(NCCN1CCCC1)c1ccc(Oc2ncc(Cl)cc2NS(=O)(=O)c2ccc(Cl)c(Cl)c2)cc1 :: range 2
O=C(NCCN1CCCCC1)c1cccc(Oc2ncc(Cl)cc2NS(=O)(=O)c2ccc(Cl)c(Cl)c2)c1 :: range 3

For the next question, use this compound.
Would you mind sorting O=C(NCCN1CCCCC1)c1ccccc1Oc1ncc(Cl)cc1NS(=O)(=O)c1ccc(Cl)c(Cl)c1 into the appropriate category? range 1

---

Molecular target: C-C chemokine receptor type 2 (Homo sapiens, UniProt P41597)
Assay: Antagonist activity at CCR2 receptor in human whole blood assessed as inhibition of MCP-1 induced monocyte shape change pretreated for 15 mins before MCP-1 challenge measured after 5 mins by flow cytometry
Format: functional, tissue-based
Settings: read-out: pA2 (converted)
recorded_endpoint: Kb (nM)
Give the value in nM but do not write nM after it.

COc1cc(C(=O)NCCN2CCCC2)ccc1Oc1ccc(Cl)cc1NS(=O)(=O)c1ccc(Cl)c(C(F)(F)F)c1 :: 251
Cc1cc(C(=O)NCCN2CCCC2)ccc1Oc1ccc(Cl)cc1NS(=O)(=O)c1ccc(Cl)c(C(F)(F)F)c1 :: 501
O=C(NCCN1CCCCC1)c1ccc(Oc2ccc(Cl)cc2NS(=O)(=O)c2ccc(Cl)c(Cl)c2)cc1 :: 3160

In plain terms, Cc1cc(Oc2ccc(C(=O)NCCN3CCCC3)cc2)c(NS(=O)(=O)c2ccc(Cl)c(C(F)(F)F)c2)cc1Cl has a documented Kb of 398

---

Assay: Cmax in rat at 1 mg/kg, iv and 2 mg/kg, po
Format: ADME, organism-based
Conditions: in vivo
recorded_endpoint: Cmax (ng/mL)
Write the answer as a number in ng/mL, unit excluded.

For O=C(NCCN1CCCCC1)c1ccc(Oc2ncc(Cl)cc2NS(=O)(=O)c2ccc(Cl)c(C(F)(F)F)c2)cc1 the molecule record lists Cmax as 624

---

Listed next: entries and their corresponding Ki.
Biological target: C-C chemokine receptor type 2 (Homo sapiens)
Assay: Antagonist activity at human CCR2 receptor expressed in CHO cells assessed as inhibition of MCP1-induced [35S]-GTPgammaS binding after 3 hrs
Type: functional, cell-based
Field format: number, assumed nM, no unit text.

These solved cases illustrate the format of a correct answer.
O=C(NCCN1CCCC1)c1ccc(Oc2ncc(Cl)cc2NS(=O)(=O)c2ccc(Cl)c(Cl)c2)cc1 :: 13
O=C(NCCN1CCCCC1)c1cccc(Oc2ncc(Cl)cc2NS(=O)(=O)c2ccc(Cl)c(Cl)c2)c1 :: 79
O=C(NCCN1CCCCC1)c1ccc(Oc2ccc(Cl)cc2NS(=O)(=O)c2ccc(Cl)c(Cl)c2)cc1 :: 63

Consider now this further compound.
Ki reported for this compound O=C(NCCN1CCCC1)c1cccc(Oc2ncc(Cl)cc2NS(=O)(=O)c2ccc(Cl)c(Cl)c2)c1 : 100

---

Biological target: C-C chemokine receptor type 1 (Homo sapiens)
Sequence (P32246 whole entry): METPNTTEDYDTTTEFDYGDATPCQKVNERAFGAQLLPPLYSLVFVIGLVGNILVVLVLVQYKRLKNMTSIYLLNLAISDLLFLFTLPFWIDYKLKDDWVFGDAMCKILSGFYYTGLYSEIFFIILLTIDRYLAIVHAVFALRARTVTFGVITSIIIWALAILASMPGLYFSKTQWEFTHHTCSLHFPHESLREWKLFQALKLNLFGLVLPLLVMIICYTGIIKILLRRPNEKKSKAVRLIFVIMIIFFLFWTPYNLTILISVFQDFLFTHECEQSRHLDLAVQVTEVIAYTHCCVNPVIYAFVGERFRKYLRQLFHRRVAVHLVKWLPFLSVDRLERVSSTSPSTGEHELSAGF
Assay: Antagonist activity at CCR1
pIC50: −log10 of the molar value.
# maps each entry to its pIC50

COc1cc(C(=O)NCCN2CCCC2)ccc1Oc1ccc(Cl)cc1NS(=O)(=O)c1ccc(Cl)c(C(F)(F)F)c1 :: < 4.60

Now consider a different compound.
The compound identified as O=C(NCCN1CCCCC1)c1ccc(Oc2ncc(Cl)cc2NS(=O)(=O)c2ccc(Cl)c(C(F)(F)F)c2)cc1 registered its pIC50 at < 4.60

---

Assay: Lipophilicity, log D of the compound
Format: physicochemical
Conditions: octanol/water
Listed here are molecules together with their documented logD.
Kindly provide the number alone.

O=C(NCCN1CCCCC1)c1ccc(Oc2ncc(Cl)cc2NS(=O)(=O)c2ccc(Cl)c(C(F)(F)F)c2)cc1 :: 3.2

Could you now look at the following molecule, please?
Short answer for COc1cc(C(=O)NCCN2CCCC2)ccc1Oc1ccc(Cl)cc1NS(=O)(=O)c1ccc(Cl)c(C(F)(F)F)c1 : logD was 2.3

---

Assay: Cmax in satellite C57BL/6 mouse at 40 mg/kg, po
Assay type: ADME, organism-based
Set-up: dose 40 mg/kg, route oral
Settings: in vivo
recorded_endpoint: Cmax (ng/mL)
Give just the number in ng/mL; leave the unit off.

COc1cc(C(=O)NCCN2CCCC2)ccc1Oc1ccc(Cl)cc1NS(=O)(=O)c1ccc(Cl)c(C(F)(F)F)c1 :: 1970

Okay, now this compound:
// Cmax value for O=C(NCCN1CCCCC1)c1ccc(Oc2ncc(Cl)cc2NS(=O)(=O)c2ccc(Cl)c(C(F)(F)F)c2)cc1 : 1520

---

Target: C-C chemokine receptor type 2 (Homo sapiens, UniProt P41597)
Assay: Antagonist activity at human CCR2 receptor expressed in CHO cells assessed as inhibition of MCP1-induced [35S]-GTPgammaS binding after 3 hrs
Format: functional, cell-based
Recorded Ki by entry
Supply the numeric figure in nM, leaving out any unit text.

Some solved cases for reference:
O=C(NCCN1CCCC1)c1ccccc1Oc1ncc(Cl)cc1NS(=O)(=O)c1ccc(Cl)c(Cl)c1 :: 631
Cc1cc(C(=O)NCCN2CCCCC2)ccc1Oc1ccc(Cl)cc1NS(=O)(=O)c1ccc(Cl)c(C(F)(F)F)c1 :: 25
O=C(NCCN1CCNCC1)c1cccc(Oc2ncc(Cl)cc2NS(=O)(=O)c2ccc(Cl)c(Cl)c2)c1 :: 200
Cc1cc(Oc2ccc(C(=O)NCCN3CCCC3)cc2)c(NS(=O)(=O)c2ccc(Cl)c(C(F)(F)F)c2)cc1Cl :: 8
O=C(NCCN1CCCCC1)c1ccc(Oc2ncc(Cl)cc2NS(=O)(=O)c2ccc(Cl)c(Cl)c2)cc1 :: 13
O=C(NCCN1CCCC1)c1ccc(Oc2ccc(Cl)cc2NS(=O)(=O)c2ccc(Cl)c(C(F)(F)F)c2)cc1 :: 2
COc1cc(C(=O)NCCN2CCCC2)ccc1Oc1ccc(Cl)cc1NS(=O)(=O)c1ccc(Cl)c(C(F)(F)F)c1 :: 6
COc1cc(Oc2ccc(C(=O)NCCN3CCCCC3)cc2)c(NS(=O)(=O)c2ccc(Cl)c(C(F)(F)F)c2)cc1Cl :: 10

Record O=C(NCCN1CCC(F)(F)C1)c1ccc(Oc2ccc(Cl)cc2NS(=O)(=O)c2ccc(Cl)c(C(F)(F)F)c2)cc1 . Reported Ki: 63

The compound identified as COc1cc(Oc2ccc(C(=O)NCCN3CCCC3)cc2)c(NS(=O)(=O)c2ccc(Cl)c(C(F)(F)F)c2)cc1Cl registered its Ki at 4

Entry O=C(NCCN1CCCCC1)c1ccc(Oc2ccc(Cl)cc2NS(=O)(=O)c2ccc(Cl)c(C(F)(F)F)c2)cc1 , Ki reported as 10

Item: O=C(NCCN1CCCCC1)c1ccccc1Oc1ncc(Cl)cc1NS(=O)(=O)c1ccc(Cl)c(Cl)c1 | Ki: 794

// O=C(NCCN1CCNCC1)c1ccc(Oc2ncc(Cl)cc2NS(=O)(=O)c2ccc(Cl)c(Cl)c2)cc1 : Ki value = 40
